Target: Bromodomain-containing protein 4 (Homo sapiens)
Test: Inhibition of His6-tagged BRD4 (1 to 477) (unknown origin) by surface plasmon resonance analysis
measuredParameter: pKd
Scale: negative log10 of molar concentration, which is what pKd denotes.

Entry "CC(=O)N1c2ccc(-c3ccc(NC(=O)CCCCCCC(=O)NO)cc3)cc2[C@H](NC(=O)OC(C)C)C[C@@H]1C" , system Bromodomain-containing protein 4 (Homo sapiens): what pKd was measured?
7.24

----------
Target: Bromodomain-containing protein 4 (Homo sapiens)
Assay: Inhibition of recombinant BRD4 bromodomain 1 (unknown origin) using histone H4 peptide as substrate incubated for 1 hr under dark condition by HTRF assay
measuredParameter: pIC50
Scale: negative log10 of molar concentration, which is what pIC50 denotes.

Some solved cases for reference:
[
  {
    "entrySmiles": "CNCc1ccc(-c2ccc3c(c2)[C@H](NC(=O)OC(C)C)C[C@H](C)N3C(C)=O)cc1",
    "targetOrTestSystem": "Bromodomain-containing protein 4 (Homo sapiens)",
    "pIC50": 6.55
  },
  {
    "entrySmiles": "CC(=O)N1c2ccc(NC(=O)CCCCCCC(=O)NO)cc2[C@H](NC(=O)OC(C)C)C[C@@H]1C",
    "targetOrTestSystem": "Bromodomain-containing protein 4 (Homo sapiens)",
    "pIC50": 6.54
  },
  {
    "entrySmiles": "CC(=O)N1c2ccc(-c3ccc(NC(=O)CCCCCCC(=O)NO)cc3)cc2[C@H](NC(=O)OC(C)C)C[C@@H]1C",
    "targetOrTestSystem": "Bromodomain-containing protein 4 (Homo sapiens)",
    "pIC50": 7.30
  },
  {
    "entrySmiles": "CC(=O)N1c2ccc(NC(=O)CCCCCCC(=O)NO)cc2[C@H](Nc2ccccc2)C[C@@H]1C",
    "targetOrTestSystem": "Bromodomain-containing protein 4 (Homo sapiens)",
    "pIC50": 7.00
  }
]

Now let's try a different one.
Fill in the blank: the reported pIC50 of "CC(=O)N1c2ccc(-c3ccccc3)cc2[C@H](NC(=O)CCCCCCC(=O)NO)C[C@@H]1C" is ____.
6.44

----------
Sequence of the target: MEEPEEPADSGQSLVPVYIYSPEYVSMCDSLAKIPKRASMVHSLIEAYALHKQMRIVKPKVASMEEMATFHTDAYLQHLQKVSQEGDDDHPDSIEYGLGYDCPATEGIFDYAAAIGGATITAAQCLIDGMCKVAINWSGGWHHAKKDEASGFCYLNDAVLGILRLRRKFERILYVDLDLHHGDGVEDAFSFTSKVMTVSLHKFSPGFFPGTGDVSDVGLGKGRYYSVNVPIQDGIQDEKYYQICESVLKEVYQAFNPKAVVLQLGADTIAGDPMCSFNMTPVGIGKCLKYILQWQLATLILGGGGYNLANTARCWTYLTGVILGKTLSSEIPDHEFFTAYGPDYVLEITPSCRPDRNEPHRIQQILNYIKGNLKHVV
measuredParameter: Kd
// return the numeric value with its unit appended

Fill in the blank: the reported Kd of "CC(=O)N1c2ccc(-c3ccc(NC(=O)CCCCCCC(=O)NO)cc3)cc2[C@H](NC(=O)OC(C)C)C[C@@H]1C" is ____.
328 nM

----------
Molecular target: Bromodomain-containing protein 4 (Homo sapiens, UniProt O60885)
Assay: Inhibition of BRD4 bromodomain 2 (338 to 437) (unknown origin) by surface plasmon resonance analysis
measuredParameter: pKd
Scale: negative log10 of molar concentration, which is what pKd denotes.

Entry "CC(=O)N1c2ccc(-c3ccc(NC(=O)CCCCCCC(=O)NO)cc3)cc2[C@H](NC(=O)OC(C)C)C[C@@H]1C" , system Bromodomain-containing protein 4 (Homo sapiens, UniProt O60885): what pKd was measured?
7.28

----------
Tested on: PBMC
Assay: Antiinflammatory activity in human PBMC assessed as inhibition of LPS-stimulated IL-6 production incubated for 30 mins prior to LPS-challenge measured after overnight incubation
Assay type: functional, cell-based
measuredParameter: IC50 (nM)
Express the result in nM but write the number alone.

[
  {
    "entrySmiles": "CNCc1ccc(-c2ccc3c(c2)[C@H](NC(=O)OC(C)C)C[C@H](C)N3C(C)=O)cc1",
    "valueReported": 5
  }
]

Entry "CC(=O)N1c2ccc(-c3ccc(NC(=O)CCCCCCC(=O)NO)cc3)cc2[C@H](NC(=O)OC(C)C)C[C@@H]1C" , system PBMC: what IC50 was measured?
219

----------
Test system: MV4-11
Assay: cells
Type: functional, cell-based
Conditions: Homo sapiens, MV4-11, 72 h
Description: Growth inhibition of human MV4-11 cells assessed as ATP level after 72 hrs by CellTiterGlo assay
measuredParameter: IC50 (µM)
Express the result in µM but write the number alone.

[
  {
    "entrySmiles": "CC(=O)N1c2ccc(-c3ccc(NC(=O)CCCCCCC(=O)NO)cc3)cc2[C@H](NC(=O)OC(C)C)C[C@@H]1C",
    "quantityUnit": "µM",
    "IC50": 0.334
  }
]

Now let's try a different one.
Fill in the blank: the reported IC50 of "CNCc1ccc(-c2ccc3c(c2)[C@H](NC(=O)OC(C)C)C[C@H](C)N3C(C)=O)cc1" is ____.
0.191

----------
Biological target: Protein deacetylase HDAC6 (Homo sapiens, UniProt Q9UBN7)
Sequence (Q9UBN7 whole entry): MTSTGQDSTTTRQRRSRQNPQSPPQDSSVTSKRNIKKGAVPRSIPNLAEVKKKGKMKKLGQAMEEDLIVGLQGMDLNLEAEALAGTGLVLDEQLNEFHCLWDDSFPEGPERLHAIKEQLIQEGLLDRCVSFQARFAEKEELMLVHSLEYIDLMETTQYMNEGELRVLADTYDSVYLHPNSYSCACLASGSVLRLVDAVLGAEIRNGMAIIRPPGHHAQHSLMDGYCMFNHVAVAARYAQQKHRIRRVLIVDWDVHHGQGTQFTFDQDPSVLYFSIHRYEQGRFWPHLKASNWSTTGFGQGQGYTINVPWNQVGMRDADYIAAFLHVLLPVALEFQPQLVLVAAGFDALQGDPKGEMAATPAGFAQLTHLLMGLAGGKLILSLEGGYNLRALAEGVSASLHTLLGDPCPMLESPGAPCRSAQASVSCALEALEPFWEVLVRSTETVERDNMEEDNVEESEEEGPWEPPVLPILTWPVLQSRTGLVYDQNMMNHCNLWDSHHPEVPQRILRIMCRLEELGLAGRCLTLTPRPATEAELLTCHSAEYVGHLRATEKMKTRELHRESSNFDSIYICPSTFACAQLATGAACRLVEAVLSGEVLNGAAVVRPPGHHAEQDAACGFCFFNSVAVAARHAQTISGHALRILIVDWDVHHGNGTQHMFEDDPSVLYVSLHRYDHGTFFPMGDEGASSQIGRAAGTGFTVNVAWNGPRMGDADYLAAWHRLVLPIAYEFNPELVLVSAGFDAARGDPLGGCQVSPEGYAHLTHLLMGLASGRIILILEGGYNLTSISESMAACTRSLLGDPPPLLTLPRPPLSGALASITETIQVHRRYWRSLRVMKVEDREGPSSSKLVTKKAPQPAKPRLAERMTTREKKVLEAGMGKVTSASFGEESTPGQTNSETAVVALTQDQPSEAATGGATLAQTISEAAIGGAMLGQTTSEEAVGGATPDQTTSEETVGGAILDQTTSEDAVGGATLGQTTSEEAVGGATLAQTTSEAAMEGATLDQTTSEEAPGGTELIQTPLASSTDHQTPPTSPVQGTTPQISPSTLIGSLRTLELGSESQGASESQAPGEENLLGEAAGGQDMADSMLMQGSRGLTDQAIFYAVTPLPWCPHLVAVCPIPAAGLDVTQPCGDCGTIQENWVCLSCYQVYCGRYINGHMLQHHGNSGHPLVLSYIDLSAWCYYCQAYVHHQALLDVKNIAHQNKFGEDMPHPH
measuredParameter: IC50 (nM)
Express the result in nM but write the number alone.

Fill in the blank: the reported IC50 of "CC(=O)N1c2ccc(-c3ccc(NC(=O)CCCCCCC(=O)NO)cc3)cc2[C@H](NC(=O)OC(C)C)C[C@@H]1C" is ____.
420

----------
Experiment: Permeability of the compound in artificial membrane
Assay type: physicochemical, cell membranes
Conditions: PAMPA; read-out: permeability
Property: Papp; scope: individual molecules
Express the result in ×10⁻⁶ cm/s but write the number alone.

Some solved cases for reference:
[
  {
    "molecule": "CC(=O)N1c2ccc(-c3ccccc3)cc2[C@H](NC(=O)CCCCCCC(=O)NO)C[C@@H]1C",
    "valueReported": 0.8
  },
  {
    "molecule": "O=C(CCCCCCC(=O)Nc1ccccc1)NO [VORINOSTAT]",
    "valueReported": 1.5
  },
  {
    "molecule": "CNCc1ccc(-c2ccc3c(c2)[C@H](NC(=O)OC(C)C)C[C@H](C)N3C(C)=O)cc1",
    "valueReported": 17.4
  }
]

Now let's try a different one.
Fill in the blank: the reported Papp of "CC(=O)N1c2ccc(NC(=O)CCCCCCC(=O)NO)cc2[C@H](Nc2ccccc2)C[C@@H]1C" is ____.
3.1
